Record form. Attribute: TGI. Fill in for each entry.
# Test system: K-562 leukemia
# assay-explanation: NCI tumour cell line growth inhibition, 48 h

Fill in the blank: the reported TGI of O=C1c2cc(Cl)ccc2-c2c1c1ccc([N+](=O)[O-])cc1c(=O)n2CCCBr is ____.
> 100 µM

Fill in the blank: the reported TGI of O=C(O)c1ccc2c(c1)CCCC(c1ccc(Cl)cc1Cl)=C2c1ccc(O[C@H]2CCN(CCCF)C2)cc1 is ____.
23.1 µM

Fill in the blank: the reported TGI of CCc1c(CNc2ccc(C(=O)NC(CC(=O)O)C(=O)O)cc2)ccc2nc(N)nc(N)c12 (stereo not drawn) is ____.
> 1000 µM

Fill in the blank: the reported TGI of CCOc1cc(/C=N\Nc2nnc(C)n2N)c(C)cc1N(CCCl)CCCl is ____.
> 100 µM

Fill in the blank: the reported TGI of COC(=O)C(CC(=O)Nc1ccc(C)cc1)C(=O)C(=O)Nc1ccccc1C(C)C (stereo not drawn) is ____.
> 100 µM

Fill in the blank: the reported TGI of CCCCOc1ccc(OCCCCCCCCCC[N+](C)(C)C)cc1 is ____.
15.4 µM

Fill in the blank: the reported TGI of COc1ccc2nc(/C(N)=C\C#N)ccc2c1 is ____.
> 100 µM

Fill in the blank: the reported TGI of Cc1cc(Cl)ccc1Nc1nc(C(F)(F)F)ccc1C(=O)N/N=C/c1ccc([N+](=O)[O-])cc1 is ____.
> 24.8 µM

Fill in the blank: the reported TGI of NC(=S)NNc1c([N+](=O)[O-])cnn(-c2ccccc2)c1=O is ____.
15.9 µM

Fill in the blank: the reported TGI of CCOc1cccc(/C=N/NC(=O)C(=O)Nc2cccc(C(F)(F)F)c2)c1O is ____.
> 100 µM

Fill in the blank: the reported TGI of S=C(N/N=C\C(=N/NC(=S)N1CCCCC1)c1ccccc1)N1CCCCC1 is ____.
> 100 µM

Fill in the blank: the reported TGI of Cc1cc2c(O)c(c1)CN(CC(=O)O)Cc1cc(C)cc(c1O)CN(CC(=O)O)Cc1cc(C)cc(c1O)CN(CC(=O)O)C2 is ____.
> 100 µM

Fill in the blank: the reported TGI of C=C(C)OCOCCOC is ____.
> 100 µM

###

# System: CCRF-CEM leukemia
# assay-explanation: NCI tumour cell line growth inhibition, 48 h
outcome-measure: TGI

Fill in the blank: the reported TGI of COc1ccc(/C=C2\CCCC(C(NO)c3ccc(OC)cc3)C2=NO)cc1 (stereo not given) is ____.
> 100 µM

Fill in the blank: the reported TGI of Cc1[nH]c(=O)nc(NCCNCCO)c1C(=O)Nc1cccc2cc3ccccc3cc12 is ____.
> 100 µM

Fill in the blank: the reported TGI of O=C1C(c2ccccc2)=[N+]([O-])c2ccccc21 is ____.
> 100 µM

Fill in the blank: the reported TGI of C=C1OC(c2ccccc2NC)=NC12CCCCC2 is ____.
> 100 µM

Fill in the blank: the reported TGI of COc1ccc(-c2c3c(n(C4OC(CO)C(O)C(O)C4O)c(=S)c2C#N)CCC3)cc1 (stereo not given) is ____.
> 100 µM

Fill in the blank: the reported TGI of CCOc1cccc(/C=N/NC(=O)C(=O)Nc2cccc(C(F)(F)F)c2)c1O is ____.
7.41 µM

Fill in the blank: the reported TGI of O=S(=O)(c1cc(Cl)ccc1Cl)n1ccnc1 is ____.
> 100 µM

Fill in the blank: the reported TGI of CCCCSc1nsc(N(C(=O)c2ccccc2)C(=O)c2ccccc2)n1 is ____.
> 100 µM

Fill in the blank: the reported TGI of OCCNc1ncnc2c1ncn2Cc1cccc(COc2cccc(OCc3cccc(Cn4cnc5c(NCCO)ncnc54)c3)c2)c1 is ____.
33.1 µM

Fill in the blank: the reported TGI of CCOC(=O)C1(C#N)C(c2ccccc2)CC(O)(c2ccc(Cl)cc2)C(C(=O)c2ccc(Cl)cc2)C1c1ccccc1 (stereo not given) is ____.
> 100 µM

Fill in the blank: the reported TGI of CC(CCC(=O)O)C(=O)O (stereo not given) is ____.
> 100 µM

Fill in the blank: the reported TGI of COc1cc(/C=C2\C(=O)Nc3ccc(N(C)C)cc32)cc(OC)c1OC is ____.
10.1 µM

Fill in the blank: the reported TGI of NCCCCNc1ccc2c(=O)[nH][nH]c(=O)c2c1 is ____.
> 100 µM

Fill in the blank: the reported TGI of CC(C)N1CC2CC(CN(C(=O)c3ccccc3)C2)C1 is ____.
> 100 µM

Fill in the blank: the reported TGI of CC(=O)NC(CCCCNC(=O)NCCCl)C(=O)NCc1ccccc1 (stereo not given) is ____.
> 100 µM

Fill in the blank: the reported TGI of COc1ccc(Cn2cc3c(c2)-c2oncc2CC3)cc1 is ____.
> 88.6 µM

Fill in the blank: the reported TGI of Cc1cccc(-n2c(=S)[nH]c3c(sc(=O)n3-c3ccccc3C)c2=O)c1 is ____.
> 100 µM

Fill in the blank: the reported TGI of COc1ccc2cc(-c3c(-c4ccncc4)nc(-c4ccc(S(C)(=O)=O)cc4C)n3C)ccc2c1 is ____.
> 25 µM

Fill in the blank: the reported TGI of Nc1ccc(C(=O)CC(N)C(=O)O)cc1O (stereo not given) is ____.
> 100 µM

Fill in the blank: the reported TGI of Cc1cc(S(=O)(=O)NC#N)c(S/C(=N\Nc2ccc([N+](=O)[O-])cc2)c2ccc(Cl)cc2)cc1Cl is ____.
> 100 µM

Fill in the blank: the reported TGI of COC(=O)C(CC(=O)Nc1ccc(C)cc1)C(=O)C(=O)Nc1ccccc1C(C)C (stereo not given) is ____.
> 100 µM

Fill in the blank: the reported TGI of COc1ccc2c(c1)/C(=C\c1c(Cl)[nH]c3ccc(OC)cc13)C(=O)N2 is ____.
> 100 µM

Fill in the blank: the reported TGI of COC(=O)C(=O)C(C(=O)C(=O)Nc1cccc(C(C)=O)c1)c1nc2ccccc2[nH]c1=O (stereo not given) is ____.
> 100 µM

Fill in the blank: the reported TGI of CS(=O)(=O)Nc1ccc2c(c1)N(S(C)(=O)=O)CC2CCl (stereo not given) is ____.
> 100 µM

Fill in the blank: the reported TGI of O=C(O)c1ccc2c(c1)CCCC(c1ccc(Cl)cc1Cl)=C2c1ccc(O[C@H]2CCN(CCCF)C2)cc1 is ____.
27.6 µM

Fill in the blank: the reported TGI of O=C1N=C2SC(=S)NC(=S)N2NC12c1ccccc1-c1ccccc12 is ____.
> 10 µM

Fill in the blank: the reported TGI of CCC(O)(Cc1ccc(OC)cc1)c1ccc(OC)cc1 (stereo not given) is ____.
> 100 µM

Fill in the blank: the reported TGI of CC(=O)OCC(OC(C)=O)C(OC(C)=O)C(OC(C)=O)C(=O)CNn1c(-c2ccccc2Cl)nc2ccccc2c1=O (stereo not given) is ____.
> 100 µM

Fill in the blank: the reported TGI of Cc1c(CN2CCN(C)CC2)c(CN2CCN(C)CC2)c(C)n1-c1ccc(Cl)cc1 is ____.
46.8 µM

Fill in the blank: the reported TGI of CCOP(=O)(OCC)OC(C#N)c1ccc(-c2ccccc2)cc1 (stereo not given) is ____.
49.7 µM
